# assayMethodText: inhibitors of fibronectin matrix deposition, primary screen, AH1F cells, Alexa488-fibronectin fluorescence, plate reader (AID 743247);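 also: positive control wells lacked labelled fibronectin entirely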
# conditionsUsed: AH1F fibroblasts, overnight, at 12.6 µM, stronger effect = higher value
Out of some 350,000 compounds screened, about 300 (0.086%) were called active. This excerpt belongs to a sample that is enriched for actives.
Recorded inhibition values for a group of compounds are listed next.

compound: CC(=O)N1[C@H](CNC(=O)CN(C)C)[C@H](c2ccc(C3=CCCC3)cc2)[C@@H]1CO
endpointUnit: %
inhibition: 13.6
--
compound: O=C(O)C[C@H]1C=C[C@@H](NC(=O)Nc2cc(F)ccc2F)[C@@H](CO)O1
endpointUnit: %
inhibition: -9.56
--
compound: O=C(Nc1nc(-c2ccncc2)cs1)C1COc2ccccc2O1 (stereo not drawn)
endpointUnit: %
inhibition: 30.8
--
compound: O=C(C[C@@H]1CC[C@@H]2[C@H](COC[C@@H](O)CN2C(=O)c2ccccc2F)O1)N1CCOCC1
endpointUnit: %
inhibition: -11.5
--
compound: Cc1cccc(NC(=O)c2nc(S(=O)(=O)Cc3ccccc3)ncc2Cl)c1
endpointUnit: %
inhibition: 20.9
--
compound: Cc1cccc(CS(=O)(=O)c2ncc(Cl)c(C(=O)Nc3ccc(F)cc3)n2)c1
endpointUnit: %
inhibition: 34.8
--
compound: C/C(=N/NC(=O)C1COc2ccccc2O1)c1ccco1 (stereo not drawn)
endpointUnit: %
inhibition: -7.65
--
compound: C[C@@H]1CN([C@H](C)CO)C(=O)c2c(c3ccccc3n2C)-c2ccccc2CO[C@@H]1CN(C)Cc1ccccc1C(F)(F)F
endpointUnit: %
inhibition: 3.35
--
compound: CN1C(=O)c2cc(NC(=O)c3cccs3)ccc2OC[C@H]2O[C@@H](CC(=O)NCC3CC3)CC[C@@H]21
endpointUnit: %
inhibition: -3.33
--
compound: CC[C@@H]1CC=CC[C@H](C)Oc2ccccc2C(=O)N(C)[C@H](Cc2ccccc2)C(=O)N1 (mixture of isomers)
endpointUnit: %
inhibition: -1.05
--
compound: CC(C)[C@@H]1COCc2cn(nn2)CC[C@@H](C)C(=O)N1
endpointUnit: %
inhibition: -0.112
--
compound: CN1c2ccc(-c3cccc(C#N)c3)cc2[C@@H]2[C@@H](CCN2C(=O)NC2CCCCC2)[C@@H]1CO
endpointUnit: %
inhibition: -3.13
--
compound: O=C(c1cccnc1)N1C[C@H]2[C@@H](c3ccccc31)[C@H](CO)N2C(=O)C1CC1
endpointUnit: %
inhibition: 7.1
--
compound: COc1cccc(NC(=O)Nc2ccc3c(c2)OC[C@@H](C)NC[C@@H](C)[C@H](OC)CN(C)C3=O)c1
endpointUnit: %
inhibition: -4.31
--
compound: O=C(C[C@@H]1CC[C@@H](NC(=O)C2CC2)[C@@H](CO)O1)NCc1ccccc1Cl
endpointUnit: %
inhibition: -5.16
--
compound: O=C(Nc1cc(S(=O)(=O)N2CCCCC2)ccc1Cl)C1COc2ccccc2O1 (stereo not drawn)
endpointUnit: %
inhibition: 1.13
--
compound: CC(C)NC(=O)N[C@@H]1CC[C@H](CC(=O)NC2Cc3ccccc3C2)O[C@H]1CO
endpointUnit: %
inhibition: 10.9
--
compound: O=C(C1CCC1)N1CC(=O)N2[C@H](CO)[C@H](c3ccc(C#CCc4ccccc4)cc3)[C@@H]2C1
endpointUnit: %
inhibition: -13.2
